# System: NCI-H2342 (Lung Adenocarcinoma)
# test details: Bliss excess, mean over the matrix (fraction); higher = more synergy
readout: Bliss excess

1) CC(=O)Nc1cccc(-n2c(=O)n(C3CC3)c(=O)c3c(Nc4ccc(I)cc4F)n(C)c(=O)c(C)c32)c1 [Trametinib] + Cc1nc(-c2cn3c(n2)-c2ccc(-c4cnn(C(C)(C)C(N)=O)c4)cc2OCC3)n(C(C)C)n1 [Taselisib] (first compound max 1 µM, 7x7, partner max 10 µM)	0.0446
2) CC(=O)c1c(C)c2cnc(Nc3ccc(N4CCNCC4)cn3)nc2n(C2CCCC2)c1=O [Palbociclib] + Cc1c2c(nn1C)CSCc1cc(n(C)n1)CSc1cc(c3ccccc3c1)OCCCc1c(C(=O)O)n(C)c3c-2c(Cl)ccc13 [AZD5991] (first compound max 10 µM, 7x7, partner max 1 µM)	-0.0063

###

Entries and their combination Emax values follow.
# System: SF539 (Glioblastoma)
# test details: combination Emax (second highest fraction inhibited in the dose matrix, 72 h); higher = more inhibition; extreme values may be limits of the assay
readout: combination Emax

1) NC1(C(=O)N[C@@H](CCO)c2ccc(Cl)cc2)CCN(c2ncnc3[nH]ccc23)CC1 [Capivasertib] + CCN(CCO)CCCOc1ccc2c(Nc3cc(CC(=O)Nc4cccc(F)c4)[nH]n3)ncnc2c1 [AZD2811] (first compound max 10 µM, 7x7, partner max 1 µM)	0.723
2) COc1nnc2ccc(N3CCC(c4ccc(OCCN5CCN(C)C(=O)[C@H]5C)cc4)CC3)nn12 [AZD5153] + Cc1c2c(nn1C)CSCc1cc(n(C)n1)CSc1cc(c3ccccc3c1)OCCCc1c(C(=O)O)n(C)c3c-2c(Cl)ccc13 [AZD5991] (first compound max 1 µM, 7x7, partner max 1 µM)	0.638

###

Entries and their Bliss excess values follow.
# Tested on: OPM-2 (Plasma Cell Myeloma)
# test details: Bliss excess, mean over the matrix (fraction); higher = more synergy
readout: Bliss excess

1. COc1cccc(OCCCN)c1-c1cc(Nc2cnc(C#N)cn2)n[nH]1 [Prexasertib] + C=CCn1c(=O)c2cnc(Nc3ccc(N4CCN(C)CC4)cc3)nc2n1-c1cccc(C(C)(C)O)n1 [AZD1775] (first compound max 1 µM, partner max 1 µM)	0.0569
2. Cn1cnc2c(F)c(Nc3ccc(Br)cc3Cl)c(C(=O)NOCCO)cc21 [Selumetinib] + CC(C)n1c(=O)n(C)c2cnc3cc(F)c(-c4ccc(OCCCN5CCCCC5)nc4)cc3c21 [AZD1390] (first compound max 10 µM, 7x7, partner max 0.3 µM)	-0.0153
3. C[C@@H](c1ccc2nccn2c1)n1nnc2ncc(-c3cnn(C)c3)nc21 [Savolitinib] + Cc1c2c(nn1C)CSCc1cc(n(C)n1)CSc1cc(c3ccccc3c1)OCCCc1c(C(=O)O)n(C)c3c-2c(Cl)ccc13 [AZD5991] (first compound max 1 µM, 7x7, partner max 1 µM)	-0.0413
4. Cc1c2c(nn1C)CSCc1cc(n(C)n1)CSc1cc(c3ccccc3c1)OCCCc1c(C(=O)O)n(C)c3c-2c(Cl)ccc13 [AZD5991] + Cn1cnc2c(F)c(Nc3ccc(Br)cc3Cl)c(C(=O)NOCCO)cc21 [Selumetinib] (first compound max 1 µM, 7x7, partner max 3 µM)	0.0231

###

# System: WM278 (Melanoma)
# test details: Bliss excess, mean over the matrix (fraction); higher = more synergy
Entries and their Bliss excess values follow.
readout: Bliss excess

1) CCc1c2c(nc3ccc(O)cc13)-c1cc3c(c(=O)n1C2)COC(=O)[C@]3(O)CC [SN-38] + O=C(c1cc(Cc2n[nH]c(=O)c3ccccc23)ccc1F)N1CCN(C(=O)C2CC2)CC1 [Olaparib] (first compound max 0.3 µM, 7x7, partner max 10 µM)	0.0486
2) CN(C)CCCOc1ccc(-c2ccc3ncc4c(c3c2)n(C2CCOCC2)c(=O)n4C)cn1 [AZD0156] + CCN(CCO)CCCOc1ccc2c(Nc3cc(CC(=O)Nc4cccc(F)c4)[nH]n3)ncnc2c1 [AZD2811] (first compound max 1 µM, 7x7, partner max 1 µM)	-0.0259
3) COc1cccc(OCCCN)c1-c1cc(Nc2cnc(C#N)cn2)n[nH]1 [Prexasertib] + CN(C)CCCOc1ccc(-c2ccc3ncc4c(c3c2)n(C2CCOCC2)c(=O)n4C)cn1 [AZD0156] (first compound max 1 µM, 7x7, partner max 1 µM)	0.0128
4) CN(CCO)CC[C@H](CSc1ccccc1)Nc1ccc(S(=O)(=O)NC(=O)c2ccc(N3CCC([C@@H](O)c4ccccc4-c4ccc(Cl)cc4)CC3)cc2)cc1S(=O)(=O)C(F)(F)F [AZD4320] + C=CCn1c(=O)c2cnc(Nc3ccc(N4CCN(C)CC4)cc3)nc2n1-c1cccc(C(C)(C)O)n1 [AZD1775] (first compound max 1 µM, partner max 1 µM)	0.0846
5) COc1nnc2ccc(N3CCC(c4ccc(OCCN5CCN(C)C(=O)[C@H]5C)cc4)CC3)nn12 [AZD5153] + CN(CC[C@H](CSC1=CC=CC=C1)NC2=C(C=C(C=C2)S(=O)(=O)NC(=O)C3=CC=C(C=C3)N4CCC(CC4)[C@H](C5=CC=CC=C5C6=CC=C(C=C6)Cl)O)S(=O)(=O)C(F)(F)F)CCO [AZD4320] (first compound max 1 µM, 7x7, partner max 1 µM)	0.0168
6) COc1nnc2ccc(N3CCC(c4ccc(OCCN5CCN(C)C(=O)[C@H]5C)cc4)CC3)nn12 [AZD5153] + Cn1cnc2c(F)c(Nc3ccc(Br)cc3Cl)c(C(=O)NOCCO)cc21 [Selumetinib] (first compound max 1 µM, 7x7, partner max 10 µM)	-0.0471
7) Cc1c2c(nn1C)CSCc1cc(n(C)n1)CSc1cc(c3ccccc3c1)OCCCc1c(C(=O)O)n(C)c3c-2c(Cl)ccc13 [AZD5991] + C[C@@H](Nc1cc(F)cc(F)c1)c1cc(C(=O)N(C)C)cc2c(=O)cc(N3CCOCC3)oc12 [AZD8186] (first compound max 1 µM, 7x7, partner max 3 µM)	0.0096
8) NC1(C(=O)N[C@@H](CCO)c2ccc(Cl)cc2)CCN(c2ncnc3[nH]ccc23)CC1 [Capivasertib] + Cn1cnc2c(F)c(Nc3ccc(Br)cc3Cl)c(C(=O)NOCCO)cc21 [Selumetinib] (first compound max 10 µM, 7x7, partner max 10 µM)	0.0221
9) C[C@@H]1COCCN1c1cc(C2([S@](C)(=N)=O)CC2)nc(-c2ccnc3[nH]ccc23)n1 [AZD6738] + O=C(c1cc(Cc2n[nH]c(=O)c3ccccc23)ccc1F)N1CCN(C(=O)C2CC2)CC1 [Olaparib] (first compound max 10 µM, 7x7, partner max 10 µM)	-0.0488
10) Cc1c2c(nn1C)CSCc1cc(n(C)n1)CSc1cc(c3ccccc3c1)OCCCc1c(C(=O)O)n(C)c3c-2c(Cl)ccc13 [AZD5991] + C1CN(CCC1(C(=O)N[C@@H](CCO)C2=CC=C(C=C2)Cl)N)C3=NC=NC4=C3C=CN4 [Capivasertib] (first compound max 1 µM, 7x7, partner max 3 µM)	-0.0498
11) COc1cccc2c1C(=O)c1c(O)c3c(c(O)c1C2=O)C[C@@](O)(C(=O)CO)C[C@@H]3O[C@H]1C[C@H](N)[C@H](O)[C@H](C)O1 [Doxorubicin] + Cc1cc2ncnn2cc1Nc1ncc2c(n1)n(C1CCOCC1)c(=O)n2C [AZD7648] (first compound max 1 µM, 7x7, partner max 10 µM)	0.0204
12) CN(CCO)CC[C@H](CSc1ccccc1)Nc1ccc(S(=O)(=O)NC(=O)c2ccc(N3CCC([C@@H](O)c4ccccc4-c4ccc(Cl)cc4)CC3)cc2)cc1S(=O)(=O)C(F)(F)F [AZD4320] + CN(C)CCCOc1ccc(-c2ccc3ncc4c(c3c2)n(C2CCOCC2)c(=O)n4C)cn1 [AZD0156] (first compound max 1 µM, 7x7, partner max 1 µM)	-0.0148
13) NC1(C(=O)N[C@@H](CCO)c2ccc(Cl)cc2)CCN(c2ncnc3[nH]ccc23)CC1 [Capivasertib] + CC(C)n1c(=O)n(C)c2cnc3cc(F)c(-c4ccc(OCCCN5CCCCC5)nc4)cc3c21 [AZD1390] (first compound max 10 µM, 7x7, partner max 0.3 µM)	-0.0671
